target: LK35.2-hPD-L1 cells / PE-labeled PD-1-Ig (Homo sapiens, UniProt Q9NZQ7); construct: expressed in transfected cells; host or cells: LK35.2 mouse B cell line; experiment: LK35.2-hPD-L1 cell binding high-content screening assay; format: cell-based; settings: cluster symbol; cell line of CBA not given (LK35.2-hPD-L1 or 293T-hPD-L1); read-out: CBA IC50 cluster
Sequence (Q9NZQ7 19-290): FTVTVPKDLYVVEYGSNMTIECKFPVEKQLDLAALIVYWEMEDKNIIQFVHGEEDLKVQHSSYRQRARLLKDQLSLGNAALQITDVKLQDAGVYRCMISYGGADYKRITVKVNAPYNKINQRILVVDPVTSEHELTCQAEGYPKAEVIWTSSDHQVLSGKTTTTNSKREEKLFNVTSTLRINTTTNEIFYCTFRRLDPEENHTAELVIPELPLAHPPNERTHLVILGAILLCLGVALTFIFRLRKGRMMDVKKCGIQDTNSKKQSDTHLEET
pIC50: −log10 of the molar value. Positions of bridges follow the written chain, without caps; N, C: chain ends. Non-standard residues stand in square brackets, D forms with d. Residues, ends and D or L forms follow the SMILES beside them. Hyp = O=C(O)[C@@H]1C[C@@H](O)CN1; NMeNle = CCCC[C@H](NC)C(=O)O; NMeA = CN[C@@H](C)C(=O)O; Dab = NCC[C@H](N)C(=O)O
reported-endpoint: pIC50

Please fill in: pIC50 reported for CCCC[C@H]1C(=O)N(C)[C@@H](CCCC)C(=O)N[C@@H](C)C(=O)N[C@H](C(=O)NCC(N)=O)CSCC(=O)N[C@@H](Cc2ccc(O)cc2)C(=O)N(C)[C@@H](C)C(=O)N[C@@H](CC(=O)O)C(=O)N2CCC[C@H]2C(=O)N[C@@H](CCN)C(=O)N[C@@H](CC(C)C)C(=O)N2C[C@H](O)C[C@H]2C(=O)N[C@@H](Cc2c[nH]c3ccccc23)C(=O)N[C@@H](CO)C(=O)N[C@@H](Cc2c[nH]c3ccccc23)C(=O)N1C [Example 1158] ({CH2CO}-Y[NMeA]DP[Dab]L[Hyp]WSW[NMeNle][NMeNle]ACG-NH2; thioether N-14) = 8.33 to 9.80
